- subject.of.test: HIV reverse transcriptase (Human immunodeficiency virus type 1 group M subtype B, UniProt P04585)
recorded.endpoint: IC50

Example cases with answers are listed next.
> print(dat)
                                   molecule            result
1  C=C(C)OC(=O)N1C(=O)[C@H](C)N(C(=O)OC(=C)C)c2nc(Cl)ccc21  0.273 to 2.73 µM
2                C[C@@H]1Nc2nc(Cl)ccc2NC1=O   5.06 to 50.6 µM
3      CC(C)=CCN1c2nc(Cl)ccc2NC(=O)[C@@H]1C  0.376 to 3.76 µM
4  C=C(C)OC(=O)N1c2nc(C)ccc2NC(=S)C1C (racemic)   3.61 to 36.1 µM
5      C[C@H]1C(=O)Nc2ccc(Cl)nc2N1Cc1ccccn1  0.346 to 3.46 µM

Enquiry: Param item = CSCC1C(=S)Nc2cccnc2N1C(=O)OC(C)C (stereo not drawn) ; retrieve measured IC50.
Return: 0.321 to 3.21 µM
